target: T1, PSMA Fab; experiment: clonal phage ELISA on biotinylated PSMA Fab captured on neutravidin, anti-M13 HRP detection, blocking buffer alone
T1 construct: In the panning ELISA the PSMA Fab was biotinylated and captured on neutravidin coated plates; also called Anti-PSMA Fab; 006 PSMA Fab
metric: Phage binding ELISA signal, Anti-PSMA Fab
Reply briefly: the number, and no unit.

Look at this binder and give its reported Phage binding ELISA signal, Anti-PSMA Fab. LEFRCVPEWMCVGF [Phage-3311]
1.87

Quick one: QEFRCVPEWMCIGL [Phage-3316]
1.86

Quick one: WVIKCVPSWMCAGL [Phage-3321]
1.85

Quick one: VGHVCIPSWMCDGM [Phage-3320]
1.86

Quick one: SSVMCIPQWMCSGF [Phage-3317]
1.86

Quick one: LPIMCKPQWMCNGF [Phage-3318]
1.86
